system: P3 promoter (RNAIII / delta-toxin expression); test: USA300-P3-Luc reporter screen for inhibition of RNAIII induction (P3 promoter activation by AIP); type: cell-based, Staphylococcus aureus; conditions: Staphylococcus aureus; 40 μM compound, 2 hours at 37° C., luminescence; relative to positive control (USA300 inhibitory AIP supernatant); read-out: % Inhibition
Where a name gives a salt, the structure may show the parent alone.
Kind request: treat 70% as inclusive, so inhibition at 40 µM at 70% or higher is 1, anything lower is -1.

CCC(=O)O[C@H]1CC[C@H]2[C@@H]3CCC4=CC(=O)CC[C@]4(C)[C@H]3CC[C@]12C [TESTOSTERONE PROPIONATE]: -1

Q: Is inhibition at 40 µM for O=C(O)Cc1ccccc1Nc1c(Cl)cccc1Cl [monosodium salt] at or above 70%?
Result: -1

Q: Is reported inhibition at 40 µM greater than or equal to 70% here: Oc1cc2c(cc1O)C1c3ccc(O)c(O)c3OCC1(O)C2 (centres unmarked)
Result: -1

Q: Can COC(=O)CC[C@@H](C)[C@H]1CC[C@H]2[C@@H]3CC[C@@H]4C[C@H](O)CC[C@]4(C)[C@H]3C[C@H](O)[C@]12C [METHYL DEOXYCHOLATE] be said to have inhibition at 40 µM at or above 70%?
Result: 1

Q: Does CC(C)c1ccc2c(c1)c(SC(C)(C)C)c(CC(C)(C)C(=O)O)n2Cc1ccc(Cl)cc1 have a reported inhibition at 40 µM of at least 70%?
Result: 1

Q: Is the recorded value of inhibition at 40 µM equal to or greater than 70% for this compound? C#C[C@]1(O)CC[C@H]2[C@@H]3CCC4=Cc5oncc5C[C@]4(C)[C@H]3CC[C@@]21C
Result: -1
